Molecular target: DAT (Homo sapiens)
Sequence (Q01959 whole entry): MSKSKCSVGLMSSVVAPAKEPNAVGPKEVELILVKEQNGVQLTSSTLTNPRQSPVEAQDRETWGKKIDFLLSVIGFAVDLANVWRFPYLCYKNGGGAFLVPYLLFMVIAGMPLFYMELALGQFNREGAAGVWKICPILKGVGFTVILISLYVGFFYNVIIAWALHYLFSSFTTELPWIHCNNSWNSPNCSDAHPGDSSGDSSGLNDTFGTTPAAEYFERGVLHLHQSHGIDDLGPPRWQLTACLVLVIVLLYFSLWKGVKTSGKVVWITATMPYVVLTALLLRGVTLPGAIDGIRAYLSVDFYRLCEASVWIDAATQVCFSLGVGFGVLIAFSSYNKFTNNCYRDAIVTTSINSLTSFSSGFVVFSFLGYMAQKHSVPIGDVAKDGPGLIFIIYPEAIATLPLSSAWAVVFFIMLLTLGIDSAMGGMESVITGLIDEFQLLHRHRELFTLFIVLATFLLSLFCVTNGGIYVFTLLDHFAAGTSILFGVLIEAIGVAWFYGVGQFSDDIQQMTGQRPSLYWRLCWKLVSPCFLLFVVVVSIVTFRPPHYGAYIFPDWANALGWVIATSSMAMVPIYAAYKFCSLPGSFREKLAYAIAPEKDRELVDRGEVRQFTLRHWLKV

| compound | Ki |
| --- | --- |
| CC(N)Cc1ccc2occc2c1.Cl (stereo not shown) | < 100 nM |

* * *

Biological target: dopamine transporter (DAT) (Homo sapiens)
Experiment: cell-based
Conditions: read-out: DAT Ki; inhibition of transporter uptake activity
pKi: −log10 of the molar value.
readoutKind: pKi

| molecule | measValue |
| --- | --- |
| CNC(C)Cc1cccs1.Cl (stereo not shown) | 6.24 |

* * *

Known pKi of a selection of compounds
Biological target: dopamine transporter (DAT) (Homo sapiens)
Test: cell-based
Details: DAT pKi (mean +/- S.E.M)
pKi: −log10 of the molar value.
readoutKind: pKi

| compound | measValue |
| --- | --- |
| CN(C)CCC=C1c2ccccc2CCc2ccccc21 [Amitriptyline, reference compound] | 5.01 |
| CCCC(C(=O)c1ccc2ccccc2c1)N1CCCC1.Cl (stereo not shown) | 7.28 |
| CN[C@H](C)Cc1ccc2c(c1)OCO2 [(−)-MDMA, 3,4-methylenedioxymethamphetamine, reference compound] | 5.21 |
| CN[C@@H](C)Cc1ccc2c(c1)OCO2 [(+)-MDMA, 3,4-methylenedioxymethamphetamine, reference compound] | 5.62 |

* * *

Target: norepinephrine transporter (NET) (Homo sapiens, UniProt P23975)
Sequence (P23975 whole entry): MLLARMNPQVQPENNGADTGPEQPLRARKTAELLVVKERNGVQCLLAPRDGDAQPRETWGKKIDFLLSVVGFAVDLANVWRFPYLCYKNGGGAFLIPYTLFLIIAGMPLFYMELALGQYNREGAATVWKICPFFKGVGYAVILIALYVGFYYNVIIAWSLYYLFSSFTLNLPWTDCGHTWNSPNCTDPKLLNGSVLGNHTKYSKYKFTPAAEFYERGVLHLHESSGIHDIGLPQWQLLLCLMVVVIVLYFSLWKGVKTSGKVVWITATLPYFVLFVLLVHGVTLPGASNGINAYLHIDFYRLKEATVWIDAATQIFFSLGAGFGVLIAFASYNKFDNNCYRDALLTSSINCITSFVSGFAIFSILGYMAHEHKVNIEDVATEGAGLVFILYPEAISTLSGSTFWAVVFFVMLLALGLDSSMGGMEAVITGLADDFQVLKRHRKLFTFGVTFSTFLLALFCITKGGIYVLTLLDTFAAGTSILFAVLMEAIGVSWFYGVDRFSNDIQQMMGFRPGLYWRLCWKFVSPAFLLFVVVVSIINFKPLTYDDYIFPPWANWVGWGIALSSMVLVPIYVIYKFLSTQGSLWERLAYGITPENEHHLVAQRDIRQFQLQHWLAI
Experiment: cell-based
Type: cell-based
Conditions: NET pKi (mean +/- S.E.M), inhibition of transporter uptake activity, N=3
pKi: −log10 of the molar value. Where a name gives a salt, the structure may show the parent alone.
Tag: class 1 if measured pKi is not below 6, class 0 if it is.

| compound | assignedLabel |
| --- | --- |
| CC(N)Cc1ccc2ccoc2c1.Cl (stereo not drawn) | class 1 |
| CC(N)Cc1ccc2occc2c1.Cl (stereo not drawn) | class 1 |
| CC(NCc1ccccc1)C(=O)c1ccc2c(c1)OCO2 (stereo not drawn) | class 0 |
| Cc1ccc(C(=O)C(C)NCc2ccccc2)cc1 (stereo not drawn) | class 0 |
| CCC(C)CC(C)N (stereo not drawn) [Dimethylamylamine, 4-methylhexan-2-amine hydrochloride] | class 0 |
